Where do the numbers come from? From ChEMBL document CHEMBL4376858.

# assay_protocol: Plasma concentration in Sprague-Dawley rat at 7.5 mg/kg, ip compound dissolved in 40% Kolliphor-EL in water measured after 7 hrs by LC-MS/MS analysis
# Type: ADME, organism-based
recorded_endpoint: concentration at 7 h (nM)
Respond with the bare value in nM.

Query: Value lookup for concentration at 7 h; key = `[O-][S@@+](Cc1cscn1)[C@@H](c1ccccc1)c1ccc(Br)cc1`
Reply: 89.6

----------
# assay_protocol: Neurotoxicity in rat cortical neuron assessed as inhibition of valid neuron count incubated for 72 hrs by Hoechst 33342 staining based ArrayScan analysis
# Type: toxicity, cell-based, Cortical neurone
# measurement_parameters: rat cortical neurons
Each record here notes measured IC50 at 72 h.
Respond with the bare value in µM.

INSERT INTO measurements (structure_as_smiles, recorded_endpoint, test_value) VALUES
  ('CN(C)CCCN1c2ccccc2Sc2ccc(Cl)cc21', 'IC50 at 72 h', 7.99);

Query: Value lookup for IC50 at 72 h; key = `COC(=O)Nc1nc2ccc(C(=O)c3cccs3)cc2[nH]1`
Reply: 2.22
